Data origin: PubChem BioAssay (NCI)

Exercise: for every item that follows, state its recorded growth.
# Test system: SK-MEL-5 melanoma
# METHOD NOTES: NCI-60 one-dose screen, 48 h (100 = growth as untreated, 0 = no growth, -100 = all killed)
# CONDITIONS: 10 µM unless noted
Compounds without any hit were thinned out: in the full panel of roughly 83,000, 20% have a hit.
Your answer should be a plain number; it is taken to be in %.

Find the recorded growth belonging to "COc1ccc2nc3c(n2c1)C(=O)C(=O)c1ccccc1-3" and report it.
-99.5

Find the recorded growth belonging to COc1ccc(C2CC(c3ccc(OC)cc3O)=NN2c2ccc(S(N)(=O)=O)cc2)cc1 (centres undefined) and report it.
49

Find the recorded growth belonging to "C=CCn1c(SCC(=O)Nc2ccc(C(=O)/C=C/c3ccc(Cl)cc3)cc2)nnc1-c1cc(OC)c(OC)c(OC)c1" and report it.
63.5

Find the recorded growth belonging to "O=C(C[n+]1cccc2cc(Cl)ccc21)c1ccc2c(c1)CCCC2" and report it.
-29

Find the recorded growth belonging to COc1ccc(-c2nc(C#N)c(NCC(c3ccc(Cl)cc3)N3CCCCC3)o2)cc1 (centres undefined) and report it.
93.2

Find the recorded growth belonging to "O=C(Nc1nccs1)c1noc2ccccc12" and report it.
91.5

Find the recorded growth belonging to "Oc1ccc(CNNc2ccnc3c(O)cccc23)c2cccnc12" and report it.
-20.2

Find the recorded growth belonging to "C[C@H]1[C@H](C)CC[C@]2(C(=O)OCCOCCOCC[P+](c3ccccc3)(c3ccccc3)c3ccccc3)CC[C@]3(C)C(=CC[C@@H]4[C@@]5(C)CC[C@H](OC(=O)C(Cl)Cl)C(C)(C)[C@@H]5CC[C@]43C)[C@H]12" and report it.
-97.7

Find the recorded growth belonging to COc1c(O)cc2oc3cc(O[C@@H]4OC(C)[C@@H](O)[C@H](O)C4O)c(CC=C(C)C)c(O)c3c(=O)c2c1CC=C(C)C (some centres undefined) and report it.
91

Find the recorded growth belonging to "Cc1c(Cl)cccc1NC(=O)c1sc2nc3c(cc2c1N)CCCCCC3" and report it.
28.7

Find the recorded growth belonging to "COc1ccc2nc(-c3ccc(Cl)cc3)cc(-c3nnc(SCC(=O)Nc4ccc(/C(C)=N\O)cc4)o3)c2c1" and report it.
71.5

Find the recorded growth belonging to "COc1cc([C@H](C)c2ccc3ccccc3c2)cc(OC)c1OC" and report it.
18.1

Find the recorded growth belonging to "COc1ccccc1Nc1nnc(-c2ccc(Cl)cc2)o1" and report it.
37.6

Find the recorded growth belonging to "Cc1cnc(-c2ccc(-c3ccc(NC(=O)Nc4c(F)cc(F)cc4F)cc3F)c3c2C(=O)NC3)[nH]1" and report it.
38.5

Find the recorded growth belonging to "CN(C)CCCn1c2c(c3cc(-c4ccco4)ccc3c1=O)C(=O)c1ccccc1-2" and report it.
78.3

Find the recorded growth belonging to "CCn1cc(C(=O)O)c(=O)c2cc(F)c(N3CCN(CC(=O)Nc4ccc(/C(C)=N/OC)cc4)CC3)cc21" and report it.
96.4

Find the recorded growth belonging to "Cc1c(O)c(=O)ccn1-c1nc2ccccc2s1" and report it.
96.2

Find the recorded growth belonging to "C=C1C(=O)O[C@H]2[C@H]1CC/C(C=Nc1c(N)cc(C(F)(F)F)cc1Br)=C\CC[C@@]1(C)O[C@@H]21" and report it.
33.7

Find the recorded growth belonging to "Nc1c(C(=O)Nc2ccccn2)sc2nc3c(cc12)C(=O)CCC3" and report it.
17.1

###

# Tested on: RXF 393 renal
# METHOD NOTES: NCI-60 one-dose screen, 48 h (100 = growth as untreated, 0 = no growth, -100 = all killed)
# CONDITIONS: 10 µM unless noted
This is part of a sample that, as a whole, favours compounds with a hit. Of some 83,000 tested, about 20% had one in any assay.
With a cut-off of 80%, any growth strictly below it is called condition met; any growth meeting it or above is called condition not met.

Take the compound CC(=O)Nc1nc2c(c(N)c1C#N)C(c1cccc(Cl)c1)C1=C(CCCC1=O)N2c1sc2c(c1C#N)CCCC2 (stereo not drawn) and say whether its growth is less than 80%.
condition met

Take the compound "C=C1C(=O)O[C@H]2[C@H]1CC/C(COC(=O)CCCCCCCCC(=O)OC/C1=C/CC[C@@]3(C)O[C@H]3[C@H]3OC(=O)C(=C)[C@@H]3CC1)=C\CC[C@@]1(C)O[C@@H]21" and say whether its growth is less than 80%.
condition met

Take the compound C1=CC2=CC=C3C=CC=C4C(c5nc6c7ccccc7c7ccccc7c6[nH]5)=CC(=C1)C2C34 (stereo not drawn) and say whether its growth is less than 80%.
condition not met

Take the compound OCCNc1nc(NCCO)nc(Nc2ccc(C3=NN(c4cc(Cl)cc(Cl)c4)C(c4ccccc4)C3)cc2)n1 (stereo not drawn) and say whether its growth is less than 80%.
condition met

Take the compound "CCCCCCCc1n(Cc2ccc3ccccc3c2)c2ccccc2[n+]1Cc1ccc2ccccc2c1" and say whether its growth is less than 80%.
condition met

Take the compound "COc1ccc(Cc2nc(C#N)c(N3CCN(c4ccc(F)cc4)CC3)o2)cc1" and say whether its growth is less than 80%.
condition met

Take the compound "N#Cc1ccc(N2Cc3cc(Cl)ccc3OC3=C2C(=O)N(Cc2ccc(F)cc2)C3=O)cc1" and say whether its growth is less than 80%.
condition met

Take the compound "Cc1cnc(SCc2ccc(Cl)cc2)[nH]c1=S" and say whether its growth is less than 80%.
condition not met

###

# Test system: HCT-116 colon
# METHOD NOTES: NCI-60 one-dose screen, 48 h
# CONDITIONS: 10 µM unless noted
About 83,000 compounds went through this panel and 20% of them were active in at least one assay; those are over-represented in the sample as a whole. Active and inactive are the calls of the source. The calls were made as follows: active = growth percent below 10; inactive = the rest.
I would appreciate it if you answered using one of these outcomes: active, inactive

Could you kindly confirm the outcome this assay logged for "Cc1nccc2c3ccc(OCc4cn(-c5ccccc5)nn4)cc3n(CCCc3ccccc3)c12" ?
inactive

Could you kindly confirm the outcome this assay logged for "O=S(=O)(Nc1nccs1)c1ccc(Nc2nc(-c3ccncc3)cs2)cc1" ?
inactive

Could you kindly confirm the outcome this assay logged for "COc1cc(/C=N/Nc2nc(-c3ccc(F)cc3)c(C#N)c(N3CCOCC3)n2)ccc1O" ?
inactive

Could you kindly confirm the outcome this assay logged for "O=[N+]([O-])c1cccc(CN(Cc2cccc([N+](=O)[O-])c2O)c2ccccc2)c1O" ?
inactive

Could you kindly confirm the outcome this assay logged for "C=C1C(=O)O[C@H]2[C@H]1CC/C(COC(=O)NCc1nc3ccccc3[nH]1)=C\CC[C@@]1(C)O[C@@H]21" ?
inactive

Could you kindly confirm the outcome this assay logged for "Cn1c2c(c3ccc(-c4ccn[nH]4)cc3c1=O)C(=O)c1ccccc1-2" ?
inactive

Could you kindly confirm the outcome this assay logged for "N#Cc1c(-c2ccc(F)cc2)nc(N=Nc2c(O)[nH]c3ccccc23)nc1N1CCOCC1" ?
inactive

Could you kindly confirm the outcome this assay logged for "COc1cccc2c1-c1ccccc1C2=O" ?
inactive

Could you kindly confirm the outcome this assay logged for "O=C1[C@@H](OS(=O)(=O)CC(F)(F)F)[C@H](c2ccc(F)cn2)N1c1cc2c3ccccc3ccc2c2ccccc12" ?
inactive

Could you kindly confirm the outcome this assay logged for "CC(C)C1=C[C@@]23CC[C@H]4[C@](C)(COCCC#N)CCC[C@]4(C)[C@H]2C[C@@H]1[C@@H]1[C@H]3[C@@H](OCCC#N)CC[C@@H]1OCCC#N" ?
inactive

Could you kindly confirm the outcome this assay logged for Cc1cccc(C)c1NC(=O)CN(CC(C)C)CC(O)COc1ccccc1 (stereo not drawn) ?
inactive

Could you kindly confirm the outcome this assay logged for "Nc1c(C(=O)c2ccccc2)sc2nc(-c3cc4ccccc4o3)cc(-c3ccc(Cl)cc3)c12" ?
inactive

Could you kindly confirm the outcome this assay logged for "O=C1c2ccccc2C(=O)c2c1oc1c2c(=O)[nH]c2ccccc21" ?
inactive

Could you kindly confirm the outcome this assay logged for O=C1NC(c2ccc(F)cc2)N=C2C(c3ccccc3)=NOC12 (stereo not drawn) ?
inactive

Could you kindly confirm the outcome this assay logged for "C=C1C(=O)O[C@H]2[C@H]1CC/C(COC(=O)c1cc3ccccc3o1)=C\CC[C@@]1(C)O[C@@H]21" ?
active

Could you kindly confirm the outcome this assay logged for CCC1S/C(=N\N=C(/C)c2ccc[nH]2)N(c2ccccc2)C1=O (stereo not drawn) ?
inactive

Could you kindly confirm the outcome this assay logged for CC(=O)Nc1c(C(=O)Nc2ccccc2)sc2nc3c(cc12)C(OC(C)=O)CCC3 (stereo not drawn) ?
inactive

Could you kindly confirm the outcome this assay logged for FC(F)(F)c1ccc2c(Nc3cccc(C4CC(c5ccccc5)=NN4c4ccc(Cl)cc4)c3)ccnc2c1 (stereo not drawn) ?
active

Could you kindly confirm the outcome this assay logged for "COc1cc2c(Nc3ccc(NC(=O)Nc4ccc(Cl)c(C(F)(F)F)c4)c(Cl)c3)ncnc2cc1OCCCN1CCN(C)CC1" ?
active

Could you kindly confirm the outcome this assay logged for COc1ccc(C2CC(c3ccc(OC)cc3O)=NN2c2ccc(S(N)(=O)=O)cc2)cc1 (stereo not drawn) ?
inactive

Could you kindly confirm the outcome this assay logged for "Nc1c(C(=O)Nc2ccccn2)sc2nc3c(cc12)CCCCC3" ?
inactive

Could you kindly confirm the outcome this assay logged for "O=C(Nc1cccc(-c2cccc(F)c2)c1)C1CCN(Cc2cccc3cccnc23)CC1" ?
inactive

Could you kindly confirm the outcome this assay logged for "Cc1c(C(=O)Nc2nc3ccccc3[nH]2)cnn1-c1ccccn1" ?
inactive

Could you kindly confirm the outcome this assay logged for "O=C(O)c1cc(N=Nc2ccc(-c3ccc(N=Nc4c(S(=O)(=O)O)cc5ccc(Nc6ccccc6)cc5c4O)cc3)cc2)ccc1O" ?
inactive

Could you kindly confirm the outcome this assay logged for "O=C(CN1N=C(c2ccc(F)cc2)CCC1=O)Nc1nccs1" ?
inactive

Could you kindly confirm the outcome this assay logged for "COc1cc(NCC(=O)Nc2cc(Nc3cccc(C(F)(F)F)c3)ncn2)c(Cl)c(OC)c1Cl" ?
inactive

Could you kindly confirm the outcome this assay logged for COC1=CC2C=C(C3N(c4ccccc4)NC(=O)[C@@H]4CCCN34)C(=O)NC2C=C1 (stereo partly drawn) ?
inactive

Could you kindly confirm the outcome this assay logged for "CCCn1c2cc(OCc3cn(-c4ccc(Br)cc4)nn3)ccc2c2ccnc(C)c21" ?
inactive

Could you kindly confirm the outcome this assay logged for O=C1NN(c2ccccc2)C(c2ccc(Cl)cc2)N2CCC[C@H]12 (stereo partly drawn) ?
inactive

Could you kindly confirm the outcome this assay logged for "Nc1c(C(=O)Nc2ccccc2)sc2nc3c(cc12)CN(C(=O)OCc1ccccc1)CC3" ?
inactive

Could you kindly confirm the outcome this assay logged for "O=C1NC(SCc2ccc(F)cc2)=N/C1=C/c1cccc(OCc2ccc(Cl)cc2)c1" ?
active

Could you kindly confirm the outcome this assay logged for COc1cc2c(cc1OC)C(Sc1ccc(Cl)cc1)c1c(nc(N)c(C#N)c1N)O2 (stereo not drawn) ?
active

Could you kindly confirm the outcome this assay logged for "C#C[C@@]1(O)[C@@H](CO)O[C@@H](n2cc(Cl)c3c(N)ccnc32)[C@@H]1O" ?
active

Could you kindly confirm the outcome this assay logged for "COc1cc(C)ccc1Oc1nc(Nc2ccc(N3CCOCC3)cc2)ncc1N=Cc1cc(C(F)(F)F)cc(C(F)(F)F)c1" ?
inactive

Could you kindly confirm the outcome this assay logged for "COc1ccc(/C=C(/C(=O)N2CCN(Cc3ccccc3)CC2)c2cc(OC)c(OC)c(OC)c2)cc1O" ?
inactive

Could you kindly confirm the outcome this assay logged for "O=C(Nc1ccc2ncnc(Nc3cccc(C(F)(F)F)c3)c2c1)c1cccs1" ?
inactive

Could you kindly confirm the outcome this assay logged for O=C1NN(c2ccccc2)C(c2ccc3c(c2)OCO3)N2CCC[C@@H]12 (stereo partly drawn) ?
inactive

Could you kindly confirm the outcome this assay logged for "COc1ccc(-n2nc(C(=O)NCC(=O)O)nc2-c2ccccc2)cc1" ?
inactive
